test system: 786-0 renal; experiment: NCI tumour cell line growth inhibition, 48 h
This listing pairs compounds with measured TGI.

Compound: O=C(Nc1cc(S(=O)(=O)c2ccc(Cl)cc2)ccc1Cl)c1cc(I)cc(I)c1O
Measured result: 30 µM

So what's the measured TGI for this one? `CC(=O)[CH-]C(=O)c1ccccc1.CC(=O)[CH-]C(=O)c1ccccc1.[CH2-]CCC.[CH2-]CCC.[Sn+4]`
2.28 µM

So what's the measured TGI for this one? CCCNC(=O)CCC(C)[C@H]1CCC2C3C(C[C@H](OC(C)=O)[C@@]21C)[C@@]1(C)CCC2(C[C@H]1C[C@H]3OC(C)=O)OOC1(CCCCC1)OO2 (stereo not given in full)
6.53 µM

So what's the measured TGI for this one? `C/C(=N/NC(=O)CC(=O)N(C(=O)c1ccccc1Cl)c1ccc(C)cc1)c1cc2ccccc2oc1=O`
> 100 µM

So what's the measured TGI for this one? `COc1cccc(CN(C(=O)/C=C\Sc2ccccc2)C(C)(C)C)c1`
> 100 µM

So what's the measured TGI for this one? O=[N+]([O-])C1C2C=CC(C2)[C@H]1c1ccc(Cl)cc1Cl (stereo not given in full)
> 100 µM

So what's the measured TGI for this one? `Cc1ccccc1NC(=O)C(=O)CC(=O)c1ccc([N+](=O)[O-])cc1`
> 100 µM

So what's the measured TGI for this one? `CC(C)(CO)N=Cc1ccccc1[O-].CC(C)(CO)N=Cc1ccccc1[O-].[Co+2]`
> 100 µM

So what's the measured TGI for this one? CC(=O)CC1(C)OC(N)=C(C#N)C1(C#N)C#N (stereo not given)
> 100 µM

So what's the measured TGI for this one? `Cc1cc([N+](=O)[O-])c(S(=O)(=O)c2ccccc2)c([N+](=O)[O-])c1`
12.3 µM

So what's the measured TGI for this one? O=C(O)C1C2C=CC(O2)C1C(=O)Nc1ncccn1 (stereo not given)
> 100 µM

So what's the measured TGI for this one? `COC(=O)n1c(C[P+](c2ccccc2)(c2ccccc2)c2ccccc2)cc2ccccc21`
12.8 µM

So what's the measured TGI for this one? `CN(C)C(=O)SC1=C(c2c(Cl)cccc2Cl)C(=O)c2ccccc21`
22.4 µM

So what's the measured TGI for this one? `CCOCNc1ccc(N2C(=O)/C(=C/c3ccc(N(CC)CC)cc3)N=C2c2ccccc2)cc1`
22.9 µM

So what's the measured TGI for this one? CCOC1=C2NC(Cc3ccc(F)cc3)=NC2C(=O)c2ccccc21 (stereo not given)
47.8 µM

The values you see were collected from PubChem BioAssay (NCI).
